- System: PSA
- protocolNotes: Prostate Surface Antigen (PSA) assay, PSA excreted into the media
- Assay type: cell-based, human
- experimentalParameters: PSA excreted into media, same plates as eGFP assay, 3 days incubation
measuredAttribute: PSA IC50

Sample records with PSA IC50:
smilesinput=Cc1cccc2c(C3=Nc4ccccc4CN3)c[nH]c12 obsvalue=Inactive
smilesinput=Cc1cccc2c(-c3ccc4c(F)cccc4n3)c[nH]c12 obsvalue=Inactive
smilesinput=Fc1ccc2ccc(Cl)nc2c1 obsvalue=Inactive
smilesinput=Cc1cccc2c(-c3ccc4c(C#N)cccc4n3)c[nH]c12 obsvalue=Inactive
smilesinput=Fc1cc(F)c2[nH]ccc2c1 obsvalue=Inactive

May I ask what PSA IC50 has been recorded for Fc1cccc2ccc(Cl)nc12 ?
Inactive

May I ask what PSA IC50 has been recorded for Fc1cccc2nc(-c3c[nH]c4ccccc34)ccc12 ?
Inactive

May I ask what PSA IC50 has been recorded for Cc1cccc2c(-c3ccc4c(Br)ccc(Br)c4n3)c[nH]c12 ?
Inactive

May I ask what PSA IC50 has been recorded for Cc1cccc2c(-c3ccc4c(O)cccc4n3)c[nH]c12 ?
Inactive

May I ask what PSA IC50 has been recorded for Fc1ccc2c(-c3ccc4c(C(F)(F)F)cccc4n3)c[nH]c2c1F ?
Inactive

====

- testedSystem: androgen receptor (AR) (Homo sapiens, UniProt P10275, T878A)
- Construct: stably transfected eGFP-expressing LNCaP human prostate cancer cells (LN-ARR2PB-eGFP) containing an androgen responsive probasin-derived promoter; endogenous in cells; host or cells: LNCaP (LN-ARR2PB-eGFP)
- protocolNotes: eGFP cellular AR transcription assay
- Type: cell-based
- experimentalParameters: LN-ARR2PB-eGFP LNCaP cells, 0.1 nM R1881, 3 days, 0-100 μM compound; read-out: IC50 (eGFP)
pIC50: −log10 of the molar value.
Could you label it Y if measured pIC50 is 6 or higher, and N otherwise?

compound=FC(F)(F)c1ccc(-c2c[nH]c3ccccc23)cc1 cat=Y
compound="Oc1ccc2c(C3Nc4ccccc4C34CCCCC4)c[nH]c2c1 (centres unmarked)" cat=N
compound=c1ccc(COc2ccc3c(-c4ccc5ccccc5n4)c[nH]c3c2)cc1 cat=N

Confirm if pIC50 reported for the compound COC(=O)c1cccc2c(-c3ccc(Br)cc3)c[nH]c12 is 6 or above.
Y

Confirm if pIC50 reported for the compound Cn1ccc2cc(-c3ccc4ccccc4c3)ccc21 is 6 or above.
N

====

Reported values of pIC50 for individual entries
- testedSystem: androgen receptor (AR) (Homo sapiens, UniProt P10275, T878A)
- Construct: stably transfected eGFP-expressing LNCaP human prostate cancer cells (LN-ARR2PB-eGFP) containing an androgen responsive probasin-derived promoter; endogenous in cells; host or cells: LNCaP (LN-ARR2PB-eGFP)
- protocolNotes: eGFP cellular AR transcription assay
- Assay type: cell-based
- experimentalParameters: LN-ARR2PB-eGFP LNCaP cells, 0.1 nM R1881, 3 days, 0-100 μM compound; read-out: IC50 (eGFP)
pIC50 is defined as minus the log10 of a concentration measured in mol/L.

Sample records with pIC50:
compound="c1ccc2nc(-n3ncc4ccccc43)ccc2c1 [13 572]" testedsystem="androgen receptor (AR) (Homo sapiens, UniProt P10275, T878A)" measuredattribute=pIC50 obsvalue=6.15
compound="Cc1cccc2c(C3Nc4ccccc4C34CCCCC4)c[nH]c12 (stereo not drawn) [13 549]" testedsystem="androgen receptor (AR) (Homo sapiens, UniProt P10275, T878A)" measuredattribute=pIC50 obsvalue=5.77

# ---- query compound ----
May I ask what pIC50 has been recorded for c1ccc2c(c1)N=C(c1c[nH]c3ncccc13)C21CCCCC1 [13 559] ?
5.18

====

- testedSystem: androgen receptor (AR) (Homo sapiens, UniProt P10275, T878A)
- Construct: stably transfected eGFP-expressing LNCaP human prostate cancer cells (LN-ARR2PB-eGFP) containing an androgen responsive probasin-derived promoter; endogenous in cells; host or cells: LNCaP (LN-ARR2PB-eGFP)
- protocolNotes: eGFP cellular AR transcription assay
- Format: cell-based
- experimentalParameters: LN-ARR2PBeGFP LNCaP cells, 0.1 nM R1881, 3 days incubation; read-out: eGFP IC50
Kindly apply the following: MET if IC50 is less than 200 nM, NOT MET in every other case.

molecule="FC(F)(F)c1ccccc1-c1c[nH]c2ccccc12 [Compound 13745]" cat="NOT MET"
molecule="CNC(=O)c1cccc2nc(-c3c[nH]c4c(C)cc(F)cc34)ccc12 [Compound 13710]" cat="NOT MET"
molecule="CC1(C)c2ccccc2NC1c1c[nH]c2ncccc12 (centres unmarked) [Compound 13556]" cat="NOT MET"
molecule="c1ccc(-c2ccccc2/N=N/c2c[nH]c3ccccc23)cc1 [Compound 13258]" cat="NOT MET"

Note: attention shifts to another entry.
# check: IC50 < 200 nM for N#Cc1cccc2c(-c3ccc4ccc(F)cc4n3)c[nH]c12 [Compound 13786]
MET

====

- testedSystem: androgen receptor (AR) (Homo sapiens, UniProt P10275, T878A)
- Construct: stably transfected eGFP-expressing LNCaP human prostate cancer cells (LN-ARR2PB-eGFP) containing an androgen responsive probasin-derived promoter; endogenous in cells; host or cells: LNCaP (LN-ARR2PB-eGFP)
- Sequence (P10275 1-920 T878A): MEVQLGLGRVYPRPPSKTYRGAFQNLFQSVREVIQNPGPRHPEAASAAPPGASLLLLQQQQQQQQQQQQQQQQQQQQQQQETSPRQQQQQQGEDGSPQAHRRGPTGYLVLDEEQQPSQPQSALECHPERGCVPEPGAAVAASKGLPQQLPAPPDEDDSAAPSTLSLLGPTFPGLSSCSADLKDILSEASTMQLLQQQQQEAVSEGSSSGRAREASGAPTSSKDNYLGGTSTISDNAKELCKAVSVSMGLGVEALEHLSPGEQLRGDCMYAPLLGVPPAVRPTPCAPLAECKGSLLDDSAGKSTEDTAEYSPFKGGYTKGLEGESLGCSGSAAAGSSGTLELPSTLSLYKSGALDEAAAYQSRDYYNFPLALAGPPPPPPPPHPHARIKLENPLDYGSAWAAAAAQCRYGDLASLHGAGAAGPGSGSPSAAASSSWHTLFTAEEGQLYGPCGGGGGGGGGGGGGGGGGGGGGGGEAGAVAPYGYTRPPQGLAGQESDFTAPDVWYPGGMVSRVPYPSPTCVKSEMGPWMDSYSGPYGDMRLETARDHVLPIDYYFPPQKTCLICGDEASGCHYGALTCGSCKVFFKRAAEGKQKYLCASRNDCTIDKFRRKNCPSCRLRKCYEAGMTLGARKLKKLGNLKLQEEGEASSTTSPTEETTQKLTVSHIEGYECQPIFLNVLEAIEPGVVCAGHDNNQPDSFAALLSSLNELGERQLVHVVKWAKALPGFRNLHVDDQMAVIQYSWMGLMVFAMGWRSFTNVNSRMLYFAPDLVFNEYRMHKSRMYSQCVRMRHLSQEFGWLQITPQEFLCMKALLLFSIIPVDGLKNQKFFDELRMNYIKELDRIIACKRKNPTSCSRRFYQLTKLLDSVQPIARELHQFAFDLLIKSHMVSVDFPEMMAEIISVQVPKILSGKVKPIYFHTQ
- protocolNotes: eGFP cellular AR transcription assay
- Assay type: cell-based
- experimentalParameters: LN-ARR2PBeGFP LNCaP cells, 0.1 nM R1881, 3 days incubation; read-out: eGFP IC50
Entries are sorted into classes by IC50 as follows: bottom end (below 0.8 µM), midrange (0.8 µM to below 6 µM), top end (6 µM or more)

Known results for compounds:
compound=Cc1cc(-c2c[nH]c3c(C)cccc23)nc2ccccc12 testedsystem="androgen receptor (AR) (Homo sapiens, UniProt P10275, T878A)" cat="bottom end"
compound=O=C(Nc1nc2ccc(Br)cc2s1)c1ccc(Br)cc1O testedsystem="androgen receptor (AR) (Homo sapiens, UniProt P10275, T878A)" cat="top end"
compound=N#Cc1cn(CCCOc2ccccc2Cl)c2ccccc12 testedsystem="androgen receptor (AR) (Homo sapiens, UniProt P10275, T878A)" cat="top end"
compound="Brc1cccc2c(-c3ccc4ccccc4n3)c[nH]c12 [Compound 13582]" testedsystem="androgen receptor (AR) (Homo sapiens, UniProt P10275, T878A)" cat="bottom end"
compound=FC(F)(F)c1ccc2c(-c3ccc4ccccc4n3)c[nH]c2c1 testedsystem="androgen receptor (AR) (Homo sapiens, UniProt P10275, T878A)" cat=midrange

Note: attention shifts to another entry.
Which bin, given its IC50, does CC1(C)c2cc(Br)ccc2NC1c1c[nH]c2cc(O)ccc12 (stereo not shown) occupy?
midrange

====

- testedSystem: androgen receptor (AR) (Homo sapiens, UniProt P10275, T878A)
- Construct: stably transfected eGFP-expressing LNCaP human prostate cancer cells (LN-ARR2PB-eGFP) containing an androgen responsive probasin-derived promoter; endogenous in cells; host or cells: LNCaP (LN-ARR2PB-eGFP)
- protocolNotes: eGFP cellular AR transcription assay
- Type: cell-based
- experimentalParameters: LN-ARR2PBeGFP LNCaP cells, 0.1 nM R1881, 3 days incubation; read-out: eGFP IC50
measuredAttribute: IC50 (µM)
Answer format: numeric, µM implied, no suffix.

molecule="Cc1[nH]c2ccccc2c1SCc1ccccc1 [Compound 13416]" obsvalue=2.7

May I ask what IC50 has been recorded for Cc1cc(F)cc2c(-c3cnc4ccc(F)cc4n3)n[nH]c12 [Compound 13718] ?
0.37

May I ask what IC50 has been recorded for C(=C\c1c[nH]c2ccccc12)/c1ccccc1 [Compound 13235] ?
2.2

May I ask what IC50 has been recorded for Fc1ccc2nc(-c3c[nH]c4c(F)c(F)c(F)cc34)ccc2c1 [Compound 13749] ?
0.29

May I ask what IC50 has been recorded for Fc1cc2[nH]cc(-c3ccc4cccc(C(F)(F)F)c4n3)c2cc1F [Compound 13682] ?
0.89

May I ask what IC50 has been recorded for Fc1ccc(Nc2nc3ccccc3[nH]2)cc1Cl [Compound 13145] ?
1.7

May I ask what IC50 has been recorded for Cc1ccc2ccc(-c3c[nH]c4c(C)c(F)ccc34)nc2c1 [Compound 13660] ?
2.5

May I ask what IC50 has been recorded for Cc1cc(Cl)cc2c(-c3ccc4ccccc4n3)c[nH]c12 [Compound 13626] ?
2.7

Data credit: patent US10633338B2
